- System: IL-6 production in human corneal epithelium cell line (HCE-T)
- ASSAY DETAILS: IL-6 production inhibitory action evaluation test after LPS stimulation
- Format: cell-based
- CONDITION DESCRIPTION: 4 hours, 100 μM test compound solution 10 μL/well, DEX treated group = 100
REPORTED METRIC: IL-6 production inhibitory ratio (% DEX)

Known results for compounds:
INSERT INTO assay_data (compound, reported_metric, result) VALUES
  ('COc1cc(OC[C@H](O)CC#N)ccc1-c1ccc2c(c1COc1cc(F)ccc1C)N(C)C(=O)C(C)(C)N2 [Compound 5-1]', 'IL-6 production inhibitory ratio (% DEX)', '98 % DEX'),
  ('COc1ccc(O)cc1-c1ccc2c(c1COc1cc(F)ccc1C)N(C)C(=O)C(C)(C)N2 [Control compound C, reference compound]', 'IL-6 production inhibitory ratio (% DEX)', '71 % DEX'),
  ('COc1cc(OCC(O)CC(=O)OC(C)(C)C)ccc1-c1ccc2c(c1COc1cc(F)ccc1C)N(C)C(=O)C(C)(C)N2 (centres unmarked) [Compound 7-2]', 'IL-6 production inhibitory ratio (% DEX)', '>99 % DEX'),
  ('CC[C@@H](O)COc1ccc(-c2ccc3c(c2COc2cc(F)ccc2C)N(C)C(=O)C(C)(C)N3)c(OC)c1 [Compound 1-4]', 'IL-6 production inhibitory ratio (% DEX)', '92 % DEX');

Then this compound:
query: Record request: IL-6 production inhibitory ratio (% DEX) value, item COc1cc(OC[C@@H](O)CC#N)ccc1-c1ccc2c(c1COc1cc(F)ccc1C)N(C)C(=O)C(C)(C)N2 [Compound 5-2]
result: >99 % DEX
